system: OVCAR-8 ovarian; assay: NCI-60 one-dose screen, 48 h (100 = growth as untreated, 0 = no growth, -100 = all killed); conditions: 10 µM unless noted
About 83,000 compounds went through this panel and 20% of them were active in at least one assay; those are over-represented in the sample as a whole. Active and inactive are the calls of the source. The calls were made as follows: active = growth percent below 10; inactive = the rest.
Please respond with reported growth for every item in the list.

[in] Quick check: growth of COc1ccc(-c2nnc(SCC(=O)Nc3ccc(C(=O)/C=C/c4cc(OC)c(OC)c(OC)c4)cc3)n2-c2ccccc2)cc1OC ?
[out] 15.9% [100 µM] (inactive)

[in] Quick check: growth of N#CC1=C(N2CCOCC2)NC2c3ccccc3Sc3ccccc3N2C1=N (stereo not given) ?
[out] 98.7% (inactive)

[in] Quick check: growth of CCOC(=O)/C(C#N)=C(/CC)OCC ?
[out] 98.8% (inactive)

[in] Quick check: growth of O=C(N/N=C/c1coc2ccccc2c1=O)c1cc2oc(-c3ccccc3)cc2[nH]1 ?
[out] 110% (inactive)

[in] Quick check: growth of N/C(=N\O)c1ccncc1 ?
[out] 102% (inactive)

[in] Quick check: growth of CCN(CC)CCCC(C)Nc1c(C)cnc2cc(Cl)c(C)cc12 (stereo not given) ?
[out] 96% (inactive)

[in] Quick check: growth of COc1ccc2cn3c4ccc(O)cc4[nH]c(=O)c3c2c1 ?
[out] 12.7% (inactive)

[in] Quick check: growth of CC(=O)Oc1cc2ccccc2cc1C(C)C ?
[out] 104% (inactive)

[in] Quick check: growth of C#CCCCCCCC[C@@H]1OC(=O)[C@H]([C@@H](C)CC)NC(=O)[C@H]([C@@H](C)CC)NC(=O)CC(=O)[C@@H]1C ?
[out] 101% (inactive)

[in] Quick check: growth of COc1cc2c(/C=C3\C(=O)Nc4ccc(Br)cc43)c(Cl)n(C)c2cc1C ?
[out] 17.8% (inactive)

[in] Quick check: growth of CN(C)CCOC(=O)C(C)(C)C ?
[out] 99.7% (inactive)

[in] Quick check: growth of N=C(N)N=Nc1ccc(NN=C(N)N)c2ccccc12 ?
[out] 96.2% (inactive)

[in] Quick check: growth of COc1ccccc1C(=O)Nc1cccc(-c2cc(=O)c3c(OC)c(OC)c(OC)cc3o2)c1 ?
[out] 38.7% (inactive)

[in] Quick check: growth of Cc1c(CN(C)C)cc(C(C)C)cc1C(C)C ?
[out] 106% (inactive)

[in] Quick check: growth of CC(=O)c1ccc2c(c1)c1ccccc1n2C ?
[out] 95.4% (inactive)

----------
system: BT-549 breast; assay: NCI-60 one-dose screen, 48 h (100 = growth as untreated, 0 = no growth, -100 = all killed); conditions: 10 µM unless noted
This is part of a sample that, as a whole, favours compounds with a hit. Of some 83,000 tested, about 20% had one in any assay.
// assign Y if growth falls strictly below 90%, else N (ties count as N)

[in] Does the reported growth of the following molecule sit strictly below 90%? Nc1cc2c(cc1Br)[nH]c(=O)c1ccccc12
[out] Y

[in] Does the reported growth of the following molecule sit strictly below 90%? CN1CCN(Cc2ccc(NC(=O)c3cncc(C#Cc4c(N)ncc5ccc(F)cc45)c3)cc2C(F)(F)F)CC1
[out] Y

[in] Does the reported growth of the following molecule sit strictly below 90%? O=C(Nc1ccc(Cl)c(Cl)c1)O/N=C\c1c(Cl)ccc([N+](=O)[O-])c1Cl
[out] Y

[in] Does the reported growth of the following molecule sit strictly below 90%? O=C(O)COc1ccc([N+](=O)[O-])cc1Cl
[out] N

[in] Does the reported growth of the following molecule sit strictly below 90%? O=c1c(N=Nc2nccs2)c(-c2ccccc2)[nH]n1-c1nc(-c2ccccc2)cs1
[out] Y

[in] Does the reported growth of the following molecule sit strictly below 90%? COCC(=O)NNc1[nH]c(-c2ccc(OC)cc2)cc1C#N
[out] N

[in] Does the reported growth of the following molecule sit strictly below 90%? Oc1ccc2ccccc2c1/C=N\Nc1ccccn1
[out] Y

[in] Does the reported growth of the following molecule sit strictly below 90%? [2H]c1nc(=Nc2cc(NC(=O)C=C)c(N(C)CCN(C)C)cc2OC)[nH]c(-c2cn(C([2H])([2H])[2H])c3ccccc23)c1[2H]
[out] Y

[in] Does the reported growth of the following molecule sit strictly below 90%? CCN(CC)C(=O)C1(C)CCCC2(C)c3cc(OC(C)=O)ccc3CCC12 (stereo not given)
[out] N

[in] Does the reported growth of the following molecule sit strictly below 90%? COc1ccc(Cn2cc3c(c2-c2ccccc2)CCc2cnoc2-3)cc1OC
[out] Y

[in] Does the reported growth of the following molecule sit strictly below 90%? CCCCCCCCCCCCCCCCCC1=NCCN1CCNC(C)=O
[out] N

[in] Does the reported growth of the following molecule sit strictly below 90%? C[C@@H](c1ccc2c(c1)[nH]c1ccc(Cl)cc12)c1nc2ccccc2[nH]1
[out] Y

[in] Does the reported growth of the following molecule sit strictly below 90%? COc1nc(OC)nc(-c2cc(-c3cc(OC)c(OC)c(OC)c3)no2)n1
[out] N

[in] Does the reported growth of the following molecule sit strictly below 90%? COc1cc(CNC(=O)CCCC/C=C/C(C)C)ccc1OCc1nnc(Nc2ccccc2F)o1
[out] Y

----------
Please respond with reported growth for every item in the list.
tested on: TK-10 renal; assay: NCI-60 one-dose screen, 48 h (100 = growth as untreated, 0 = no growth, -100 = all killed); settings: 10 µM unless noted
Compounds without any hit were thinned out: in the full panel of roughly 83,000, 20% have a hit. Calls of active or inactive are those of the source. How the source made its calls: active means growth percent below 10; inactive means the rest.

[in] Item CCc1c(C)c2ccc(OCC(=O)N=Nc3c(O)[nH]c4ccccc34)c(C)c2oc1=O with TK-10 renal - growth?
[out] 61.3% (inactive)

[in] Item CCCCCCC(C(=O)OCC)(C(=O)OCC)C1CCCCCC1 with TK-10 renal - growth?
[out] 102% (inactive)

[in] Item Cc1c(CN(C)C)cc(C(C)C)cc1C(C)C with TK-10 renal - growth?
[out] 94.9% (inactive)

[in] Item O=C(/C=C1\C(=O)N(Cc2ccc([N+](=O)[O-])cc2)c2ccccc21)c1ccc(OCCN2CCCCC2)cc1 with TK-10 renal - growth?
[out] -81.4% (active)

[in] Item CC(C)OC(=O)Nn1cnc2ccccc21 with TK-10 renal - growth?
[out] 87.6% (inactive)

[in] Item Clc1ccc(N/N=C/c2ccccn2)nc1 with TK-10 renal - growth?
[out] 26.7% (inactive)

[in] Item CC(=O)Nc1ccc(C(=O)/C=C/c2ccc(N(C)C)cc2)cc1 with TK-10 renal - growth?
[out] 95.4% (inactive)

[in] Item CC[C@H](Nc1ncnc2nc[nH]c12)c1nc2cccc(NCc3ccc(C(=O)NO)nc3)c2c(=O)n1-c1ccccc1 with TK-10 renal - growth?
[out] 58.9% (inactive)

[in] Item CCOC(=O)c1c(C)oc2ncnc(Nc3ccc(NC(=O)Nc4ccc(CC)cc4)cc3)c12 with TK-10 renal - growth?
[out] 112% (inactive)

[in] Item N#CC1=C(N2CCOCC2)NC2c3ccccc3Sc3ccccc3N2C1=N (stereo not drawn) with TK-10 renal - growth?
[out] 96.9% (inactive)

[in] Item CCCCN(CCCC)c1ccc(C(=O)O)cc1 with TK-10 renal - growth?
[out] 86.3% (inactive)

[in] Item O=c1c2c(c3ccccc3n1-c1ccccc1)NC(=S)NC2c1ccccc1 (stereo not drawn) with TK-10 renal - growth?
[out] 226% (inactive)

[in] Item C=CCC(CCC(CC=C)C(=O)OCC)C(=O)OCC (stereo not drawn) with TK-10 renal - growth?
[out] 91.6% (inactive)

[in] Item COc1cc2cn3c4ccc(O)cc4[nH]c(=O)c3c2cc1OC with TK-10 renal - growth?
[out] -22.6% (active)

[in] Item CCC(CCCN1C(=O)c2ccccc2C1=O)Nc1cc(OC)cc2cccnc12 (stereo not drawn) with TK-10 renal - growth?
[out] 136% (inactive)

[in] Item CC(=O)Nc1nc(C)c(C(=O)N/N=C/N2CCOCC2)s1 with TK-10 renal - growth?
[out] 103% (inactive)

[in] Item COc1ccc(C2=C/C(=C\c3ccc(Cl)cc3)C(=O)NN2C(=S)NN)cc1 with TK-10 renal - growth?
[out] 129% (inactive)

[in] Item COc1nc(OC)nc(-c2cc(-c3cc(OC)c(OC)c(OC)c3)no2)n1 with TK-10 renal - growth?
[out] 101% (inactive)

[in] Item Nc1ccc(N=Nc2ccccc2)c2cc(S(=O)(=O)O)ccc12 with TK-10 renal - growth?
[out] 92.9% (inactive)

[in] Item COc1cc(/C=C/C(=O)c2ccc(F)cc2)ccc1OCCCCOc1cc2c(cc1OC)C(=O)N1CCCC1C=N2 (stereo not drawn) with TK-10 renal - growth?
[out] -16.9% (active)

[in] Item Cc1ccc(CC(=O)O)c(C)c1 with TK-10 renal - growth?
[out] 88.3% (inactive)

[in] Item CNCCCNCCCCNCCCN1C(=O)c2ccc3c4c(ccc(c24)C1=O)C(=O)N(CCCNCc1ccccc1OC)C3=O with TK-10 renal - growth?
[out] 41.9% (inactive)

[in] Item CCOC(=O)c1c(C)oc2ncnc(Nc3ccc(NC(=O)Nc4cccc(Cl)c4)cc3)c12 with TK-10 renal - growth?
[out] 79.2% (inactive)

[in] Item CC(C)(C)c1cc(C[P+](c2ccc(Cl)cc2)(c2ccc(Cl)cc2)c2ccc(Cl)cc2)cc(C(C)(C)C)c1O with TK-10 renal - growth?
[out] 105% (inactive)

[in] Item COc1ccccc1Nc1nnc(COc2ccc(CNC(=O)CCCC/C=C/C(C)C)cc2OC)o1 with TK-10 renal - growth?
[out] 103% (inactive)

[in] Item COC(=O)c1ccc(C(=Nc2ccc(N(C)C(=O)CN3CCN(C)CC3)cc2)c2c(O)[nH]c3ccc(C(=O)OC)cc23)cc1 with TK-10 renal - growth?
[out] 51.7% (inactive)

[in] Item Cn1c2c(cc(S(=O)(=O)c3ccccc3)c1=O)CCc1c-2cnn1-c1ccc(Cl)cc1 with TK-10 renal - growth?
[out] 34.6% (inactive)

[in] Item CCOC(=O)NNc1[nH]c(-c2ccc(OC)cc2)cc1C#N with TK-10 renal - growth?
[out] 92.7% (inactive)
